Target: T1, recombinant sCD4 comprising the full-length extracellular domain of human CD4 (human, UniProt P01730 26-396)
T1 construct: also called human soluble CD4; human sCD4 protein
Test: SPR (Biacore), antibody amine-coupled on the chip, human sCD4 as analyte, 25 C, 1:1 Langmuir fit
Label rule, in plain words: koff of 0.0001 s⁻¹ and up is met, under 0.0001 s⁻¹ is not met.

Here's what some known entries look like.
binder	class
LM60, ibalizumab light chain mutant with an N-linked glycosylation site at position 60 (antibody, human IgG1, kappa, V domains shown) VH: QVQLQQSGPEVVKPGASVKMSCKASGYTFTSYVIHWVRQKPGQGLDWIGYINPYNDGTDYDEKFKGKATLTSDTSTSTAYMELSSLRSEDTAVYYCAREKDNYATGAWFAYWGQGTLVTVSS VL: DIVMTQSPDSLAVSLGERVTMNCKSSQSLLYSTNQKNYLAWYQQKPGQSPKLLIYWASTRESGVPNATSGSGSGTDFTLTISSVQAEDVAVYYCQQYYSYRTFGGGTKLEIKR	not met
LM30E, ibalizumab light chain mutant with an N-linked glycosylation site at position 30E (antibody, human IgG1, kappa, V domains shown) VH: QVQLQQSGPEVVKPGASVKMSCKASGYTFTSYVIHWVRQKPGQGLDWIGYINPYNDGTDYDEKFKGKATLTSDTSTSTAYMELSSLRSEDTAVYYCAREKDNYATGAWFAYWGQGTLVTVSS VL: DIVMTQSPDSLAVSLGERVTMNCKSSQSLLYSTNNATYLAWYQQKPGQSPKLLIYWASTRESGVPDRFSGSGSGTDFTLTISSVQAEDVAVYYCQQYYSYRTFGGGTKLEIKR	met
LM76, ibalizumab light chain mutant with an N-linked glycosylation site at position 76 (antibody, human IgG1, kappa, V domains shown) VH: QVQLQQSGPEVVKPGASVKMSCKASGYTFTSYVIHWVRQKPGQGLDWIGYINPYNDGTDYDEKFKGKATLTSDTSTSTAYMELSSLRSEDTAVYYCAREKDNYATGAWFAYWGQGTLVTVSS VL: DIVMTQSPDSLAVSLGERVTMNCKSSQSLLYSTNQKNYLAWYQQKPGQSPKLLIYWASTRESGVPDRFSGSGSGTDFTLTINATQAEDVAVYYCQQYYSYRTFGGGTKLEIKR	met
LM67, ibalizumab light chain mutant with an N-linked glycosylation site at position 67 (antibody, human IgG1, kappa, V domains shown) VH: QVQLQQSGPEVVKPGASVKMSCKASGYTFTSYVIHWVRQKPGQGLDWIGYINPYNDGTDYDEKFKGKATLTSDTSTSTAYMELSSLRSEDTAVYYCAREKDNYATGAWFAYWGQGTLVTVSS VL: DIVMTQSPDSLAVSLGERVTMNCKSSQSLLYSTNQKNYLAWYQQKPGQSPKLLIYWASTRESGVPDRFSGSGNATDFTLTISSVQAEDVAVYYCQQYYSYRTFGGGTKLEIKR	met

Say whether LM53, ibalizumab light chain mutant with an N-linked glycosylation site at position 53 (antibody, human IgG1, kappa, V domains shown) VH: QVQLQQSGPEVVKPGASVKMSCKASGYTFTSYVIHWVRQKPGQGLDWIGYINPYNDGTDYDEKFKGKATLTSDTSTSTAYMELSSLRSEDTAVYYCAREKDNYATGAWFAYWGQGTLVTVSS VL: DIVMTQSPDSLAVSLGERVTMNCKSSQSLLYSTNQKNYLAWYQQKPGQSPKLLIYWASNATSGVPDRFSGSGSGTDFTLTISSVQAEDVAVYYCQQYYSYRTFGGGTKLEIKR shows koff of 0.0001 s⁻¹ or more. met

Say whether LM54, ibalizumab light chain mutant with an N-linked glycosylation site at position 54 (antibody, human IgG1, kappa, V domains shown) VH: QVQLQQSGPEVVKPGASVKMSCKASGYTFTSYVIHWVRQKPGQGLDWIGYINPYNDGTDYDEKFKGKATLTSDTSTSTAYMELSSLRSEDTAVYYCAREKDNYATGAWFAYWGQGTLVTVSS VL: DIVMTQSPDSLAVSLGERVTMNCKSSQSLLYSTNQKNYLAWYQQKPGQSPKLLIYWASTNATGVPDRFSGSGSGTDFTLTISSVQAEDVAVYYCQQYYSYRTFGGGTKLEIKR shows koff of 0.0001 s⁻¹ or more. met
